- measurement-protocol: rat PK study
- Assay type: in vivo
- test-parameters: plasma; rat PK profile; read-out: rat t1/2 (converted)
observation-type: half-life (h)
Kindly provide the numeric value in h only, without the unit symbol.

So for `CS(=O)(=O)Nc1ccc(C(=O)NCc2ccc(Cl)cc2Cl)cc1` , the logged half-life turned out to be 3

---

- target-or-test-system: TREK-2 (Homo sapiens, UniProt P57789)
- Sequence (P57789 1-538): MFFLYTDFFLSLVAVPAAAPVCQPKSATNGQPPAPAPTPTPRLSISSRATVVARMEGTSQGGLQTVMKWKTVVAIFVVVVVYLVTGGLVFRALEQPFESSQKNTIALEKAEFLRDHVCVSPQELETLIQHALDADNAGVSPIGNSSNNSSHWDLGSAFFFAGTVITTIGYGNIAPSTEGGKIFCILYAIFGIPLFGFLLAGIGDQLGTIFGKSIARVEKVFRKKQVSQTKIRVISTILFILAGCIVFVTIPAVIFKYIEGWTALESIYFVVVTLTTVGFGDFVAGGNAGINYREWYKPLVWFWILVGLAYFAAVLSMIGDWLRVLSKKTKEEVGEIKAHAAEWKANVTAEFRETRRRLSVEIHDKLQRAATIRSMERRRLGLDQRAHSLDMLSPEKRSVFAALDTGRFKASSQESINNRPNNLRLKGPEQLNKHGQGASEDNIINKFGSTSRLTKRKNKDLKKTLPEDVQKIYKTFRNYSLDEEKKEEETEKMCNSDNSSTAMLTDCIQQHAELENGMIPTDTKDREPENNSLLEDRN
- measurement-protocol: manual patch clamp (MPC) assay, TREK-2, species not stated
- Format: cell-based
- test-parameters: manual patch clamp
observation-type: EC50 (nM)
Kindly provide the numeric value in nM only, without the unit symbol.

So for `CS(=O)(=O)Nc1ccc(C(=O)NCc2ccc(Cl)cc2Cl)cc1` , the logged EC50 turned out to be 950
